System: SW-620 colon
Assay: NCI-60 one-dose screen, 48 h (100 = growth as untreated, 0 = no growth, -100 = all killed)
Conditions: 10 µM unless noted
This is part of a sample that, as a whole, favours compounds with a hit. Of some 83,000 tested, about 20% had one in any assay. Calls of active or inactive are those of the source. How the source made its calls: active means growth percent below 10; inactive means the rest.

Compound	growth
Cc1oc(-c2ccc(Cl)cc2)nc1C1=NN(C(=O)c2ccncc2)C(c2ccccc2)C1 (stereo not given)	95.2% (inactive)
COc1cc(-c2nccc3[nH]c(-c4cccc5[nH]ccc45)nc23)cc(OC)c1OC	27% (inactive)
O=C1/C(=C/c2c[nH]c(=O)[nH]c2=O)SC(=S)N1Cc1ccccc1	98.7% (inactive)
CCOC(=O)/C(=C(/C)NCC(C)C)c1cc(O)c(O)c2c(C)cc(=O)[nH]c12	31.8% (inactive)
O=C(NCCN1CCOCC1)OCc1ccc2c(Cl)cc(Cl)c(O)c2n1	87.6% (inactive)
CS(=O)(=O)Nc1cc(-c2ccc3ncnc(Nc4ccc5c(cnn5Cc5ccncc5)c4)c3c2)cnc1Cl	68.6% (inactive)
CCOC(=O)C1=C(c2ccccc2)N=C2N(c3ccccc3)N=C(C(C)=O)N2C1c1ccc(F)cc1 (stereo not given)	99.9% (inactive)
c1ccc(-c2c(-c3ccccc3)[n+](Cc3ccc4ccccc4c3)cn2Cc2ccc3ccccc3c2)cc1	-79.8% (active)
COc1cc(-c2ccc(-c3ccc(C(=N)N)cc3)s2)cc(OC)c1OC	20.9% (inactive)
O=C(O)CC(C(=O)O)/C(=C\c1ccccc1)c1ccccc1 (stereo not given)	103% (inactive)
Fc1ccc2[nH]cc(-c3nc(-c4c[nH]c5c(Cl)nccc45)cs3)c2c1	2.51% (active)
Cc1cc(C)c2c(c1)N(C)c1ncnc(-n3c(C)nc4cc(C)ccc43)c1CC2C (stereo not given)	19.6% (inactive)
CCOC(=O)c1cnn(CC(C)O)c1NC(=O)NCc1cccc(F)c1 (stereo not given)	102% (inactive)
CN1CC(c2ccc(Br)cc2)C(C(=O)c2ccc(Br)cc2)C12C(=O)Nc1ccccc12 (stereo not given)	72% (inactive)
Fc1cccc(-c2nc(-c3c[nH]c4ncccc34)cs2)c1	56% [100 µM] (inactive)
Cc1ccc(C(=O)c2ccc(CC(=O)N/N=C/c3cccc(O)c3O)n2C)cc1	34.3% (inactive)
O=C(NCCNC(c1ccccc1)C(NCCNC(=O)c1ccccc1)c1ccccc1)c1ccccc1 (stereo not given)	57.8% (inactive)
CS(=O)(=O)Nc1cc(-c2ccc3ncnc(Nc4ccc5c(cnn5Cc5ccccc5F)c4)c3c2)cnc1Cl	46.8% (inactive)
COCCn1cc(-c2nc(-c3cc4cccnc4n3C)cs2)c2ccccc21	28.9% (inactive)
CC[C@@H](C(=O)[C@@H](C)[C@@H](O)[C@H](C)[C@@H]1O[C@@H]([C@@H](CC)C(=O)ONC(=O)c2ccccc2O)CC[C@@H]1C)C1O[C@]2(C=CC(=O)[C@]3(CC[C@@](C)([C@H]4CC[C@](O)(CC)[C@H](C)O4)O3)O2)[C@H](C)C[C@@H]1C (stereo not given in full)	40.8% (inactive)
ClC(Cl)c1nc(-c2ccccc2)n2nc(-c3ccccc3)cc2n1	-35.3% (active)
CC(C)(C)c1ccc(S(=O)(=O)Oc2ccc(-c3sc4cc(OS(=O)(=O)c5ccc(C(C)(C)C)cc5)ccc4c3C(=O)c3ccc(OCCN4CCCCC4)cc3)cc2)cc1	101% (inactive)
Cc1ccc(NC(=O)c2sc3nc(C)c(C(O)c4ccccc4)cc3c2N)cc1 (stereo not given)	23.1% (inactive)
Cc1ncc(C(=O)Nc2ccc(CN3CCN(C)CC3)c(C(F)(F)F)c2)cc1C#Cc1cnc(N)c2ccc(C#N)cc12	6.41% (active)
Cc1ccc(Cc2cnc(NC(=O)/C=C/c3ccc(C)o3)s2)cc1	22.7% (inactive)
CC(C)CCC[C@@H](C)[C@H]1CC[C@H]2[C@@H]3CC=C4c5sc(Nc6cc(C(F)(F)F)cc(C(F)(F)F)c6)nc5CC[C@]4(C)[C@H]3CC[C@]12C	100% (inactive)
Cc1nc(N/N=C/c2cn(-c3ccccc3)nc2-c2cc3ccccc3oc2=O)sc1N=Nc1ccccc1	78.8% (inactive)
COc1ccc(-c2cc(C(=O)N3N=C(c4ccc(N)cc4)CC3c3ccc(Cl)cc3)c3cc(OC)ccc3n2)cc1 (stereo not given)	35.5% (inactive)
O=C1Nc2ccccc2/C1=N/N1C(=O)CN(CCCl)C1=O	95.1% (inactive)
Nc1ccc(-c2ccncc2)cc1NC(=O)N1CCCC1	98.2% (inactive)

###

Tested on: SF-295 CNS
Test: NCI-60 one-dose screen, 48 h
Conditions: 10 µM unless noted
The panel holds about 83,000 compounds, 20% with a hit somewhere; the sample as a whole holds those more often. The source made the active and inactive calls. How the source made its calls: active means growth percent below 10; inactive means the rest.
Possible outcomes: active, inactive

Compound	Assayed System	Group
Oc1c(I)cc(I)cc1CN(Cc1ccccn1)Cc1ccccn1	SF-295 CNS	inactive
CC1(C)CC[C@]2(CO)CC[C@]3(C)[C@](O)([C@H](O)C[C@@H]4[C@@]5(C)CCCNC(C)(C)[C@@H]5CC[C@]43C)[C@@H]2C1	SF-295 CNS	inactive
COc1cc(/C=C/c2cc(/C=C/c3ccc(O)c(OC)c3)n(C(=O)Nc3ccc(Cl)cc3)n2)ccc1O	SF-295 CNS	active
Cc1ccc(OCCOCCOCCOCCOCCOc2ccc(C)n(O)c2=S)c(=S)n1O	SF-295 CNS	inactive
CCOC(=O)C1=C(CC(O)c2ccc(OC)cc2OC)NC(=O)NC1c1ccccc1 (centres undefined)	SF-295 CNS	inactive
CSc1ccc2c3c(n(C[C@H](O)CO)c(=O)c2c1)-c1ccccc1C3=O	SF-295 CNS	inactive
COc1ccc(/C=N/NC(=O)Cn2c(-c3ccc(S(C)(=O)=O)cc3)nc3ccccc32)cc1	SF-295 CNS	inactive
COc1ccc2c(c1)C(C)Cc1c(ncnc1-n1cnc3cc(C)ccc31)N2C (centres undefined)	SF-295 CNS	active
Cc1cn(C)cn1	SF-295 CNS	inactive
COCCn1cc(-c2nc(-c3cn(CCOC)c4ncccc34)cs2)c2cc(F)ccc21	SF-295 CNS	inactive
Cc1ccc2c(c1)=C/C(=C\c1cc(-c3ccccc3)[nH]c1O)C(=O)N=2	SF-295 CNS	inactive
Cc1ccc2cnc(N)c(C#Cc3cc(C(=O)Nc4ccc(CN5CCN(C)CC5)c(C(F)(F)F)c4)cnc3C)c2c1	SF-295 CNS	inactive
C#COc1cccc(Nc2ncnc3cc(NC(=O)[C@H](C)Cl)ccc23)c1	SF-295 CNS	active
CN(C)c1ccc([C@@H](C(=O)Nc2cccc([N+](=O)[O-])c2)N(C(=O)c2cc3ccccc3[nH]2)c2cccc([N+](=O)[O-])c2)cc1	SF-295 CNS	inactive

###

System: NCI-H23 lung
Test: NCI-60 one-dose screen, 48 h (100 = growth as untreated, 0 = no growth, -100 = all killed)
Details: 10 µM unless noted
The panel holds about 83,000 compounds, 20% with a hit somewhere; the sample as a whole holds those more often.

Compound	growth [%]
CC(C)(C)c1ccc(C(=O)N/N=C/c2ccc(O)cc2O)cc1	19.1
c1ccc(-c2c(-c3ccccc3)[n+](Cc3ccc4ccccc4c3)cn2Cc2ccc3ccccc3c2)cc1	-74.9
Cc1cc(=O)n(C(=S)Nc2ccc(Cl)cc2)c2cc(O)ccc12	85.6
CC1=C2CC/C(C)=C/CC[C@]3(C)O[C@H]3CC/C(C)=C/[C@H]2OC1	97.3
COc1ccc(C/C(C)=C(\c2ccc(Cl)cc2)c2ccc(OCCCN(C)C)cc2)cc1	88.1
O=C(C[C@]1(O)C(=O)Nc2ccc(Br)cc21)c1ccco1	97
Fc1ccc(/C=C/[C@@H]2C[C@@H](F)CCO2)cc1	104
O=C1/C(=C/c2cccc(Br)c2)COc2ccc(O)cc21	74.8
S=c1ccnc[nH]1	103
c1ccc(Cn2cc3c(c2-c2ccccc2)CCc2cnoc2-3)cc1	78.8
Clc1ccc(-c2nc(C(Cl)Cl)nc3cc(-c4ccccc4)nn23)cc1	-3.66
COc1ccc(C(c2cc(OC)c(OC)c(OC)c2)N2CCCCC2)cc1 (stereo not drawn)	59.3
CCN(CC)CCOc1ccc(C(=O)/C=C\c2ccc(Cl)cc2Cl)cc1	58.3
Cc1nc2sc(C(=O)Nc3cccc(Cl)c3C)c(N)c2cc1C(=O)/C=C/c1ccccc1	28.6
O=C(Oc1ccc2c(c1)sc1nc(-c3ccccc3)[nH]c(=O)c12)C(F)(F)F	52.8
Nc1ncccc1O	78
O=[N+]([O-])c1ccccc1Sc1ccccc1[N+](=O)[O-]	93.7
Cc1ccc2c(c1)=C/C(=C\c1cc(-c3ccccc3)[nH]c1O)C(=O)N=2	56.7
ClCCn1cnc2c(SCc3ccccc3)ncnc21	72.4
CC/C(=C(/c1ccc(O)cc1)c1ccc(OCCN2CCCCC2)cc1)c1ccc(OC)cc1	79.2
CCOC(=O)c1nnn(Cc2cc(=O)oc3ccc(O)cc23)c1C	101
CCOC(=O)NC(=S)n1oc(=O)c2ccccc21	97.7
O=C1CCCC1[n+]1ccccc1 (stereo not drawn)	108
COc1ccc(C2[C@@H](Cl)C(=O)N2c2cc(OC)c(OC)c(OC)c2)cc1Cl (stereo partly drawn)	34.9
C=CCN=c1sc(-c2ccc3ccccc3c2)cn1NC(=O)c1cc2ccc1CCc1ccc(cc1)CC2	55.8
Cn1cc(-c2nonc2-c2c[nH]c3ccccc23)c2cc(Br)ccc21	52.9
COC12C=C/C(=C(/C(=O)OCc3csc(SC)n3)C(=O)CCCCCCCCC3(OC)C=C/C(=C(/C(=O)OCc4cnc(SC)s4)C(=O)CCCCCCCC1)O3)O2 (stereo not drawn)	15.7
COc1cc(/C=C2\C(=O)N(CCCOc3cc(O)c4c(=O)cc(-c5ccccc5)oc4c3)c3ccccc32)cc(OC)c1O	87.9
Cc1ccc(S(=O)(=O)c2nc(-c3ccccc3)oc2SCC(N)=O)cc1	96.8
c1cc(OCCN2CCCCC2)ccc1CNc1ccc2nc(CCC3CCCCC3)[nH]c2c1	73.8
C#CCOc1cccc(Nc2ncnc3cc(NC(=O)CCl)ccc23)c1	-65
CCN(CC)CCOc1ccc(Nc2ncc3cc(-c4c(Cl)cccc4Cl)c(=O)n(CCOC)c3n2)cc1	-9.78
CN(C)CCCNC(=O)c1cncnc1Nc1ccc2c(ccn2Cc2cccc(F)c2)c1	95.6
C=CC(=O)Nc1cccc(Oc2nccc(Nc3nnc(-c4ccc(Br)cc4)s3)n2)c1	90.8
Cc1ccc(OCCOCCOCCOc2ccc(C)n(O)c2=S)c(=S)n1O	44.9
CCOC(=O)c1ccc[nH]1	87.7
CCOC(=O)/C(=C(/C)NCC(C)C)c1cc(O)c(O)c2c(C)cc(=O)[nH]c12	51.4
COC(=O)c1c2c(c(C)[n+]([O-])c1C)C(=O)C(NCc1ccccc1)=CC2=O	9.17

Source listed as PubChem BioAssay (NCI).
